- Test system: Tov-21-G
- Assay Notes: Primary qHTS to identify gynecologic anti-cancer compounds using libraries of approved drugs and bioactive compounds (AID 1345084); further: nearly all actives have a fitted effect of over 55% in size
- Condition Parameters: Gynecologic cancer cell panel viability, ATPlite luminescence, 48 h; series mostly up to 57.5 µM
Results filed as inconclusive are left out. Activity calls are given as the source filed them. The call rests on the fitted dose curve; in most records, active means well fitted cell-killing curve with a large enough effect; inconclusive means small, poorly fitted or top-dose-only effect, or effect the other way; inactive means flat fitted curve, though single readings scatter.
Your response should consist of one outcome taken from 1 (yes) for active, 0 (no) for inactive

Tell me the recorded outcome of this test for CC1=CC2/C=C(\C)CCCC(O)/C=C/C(=O)OC23C(=O)NC(CC(C)C)C3C1C (stereo unspecified) .
0 (no)

Which outcome was entered for the compound C=CC(C)(C)C12C=C(O)C(=O)N3/C(=C\c4cnc[nH]4)C(=O)NC31N(OC)c1ccccc12 (stereo unspecified) in this test?
0 (no)

Test call, this compound: CN1CCCCC1Cn1cc(C(=O)c2cc([N+](=O)[O-])ccc2I)c2ccccc21 (stereo unspecified)
0 (no)

Answer briefly: the call reported for `COc1ccc2c3c4n(c2c1)[C@@H](C=C(C)C)OOC(C)(C)C[C@@H]4N1C(=O)[C@@H]2CCCN2C(=O)[C@]1(O)[C@H]3OCC=C(C)C` in this assay.
0 (no)

Tell me the assay call for COC1CC(O[C@H]2CC[C@]3(C)C4CC[C@]5(C)[C@@H](C6=CC(=O)OC6)[C@@H](OC(C)=O)C[C@]5(O)C4CC[C@@H]3C2)OC(C)C1O (stereo partly specified) please.
1 (yes)

Tell me the assay call for `COc1ccc(C(C)(C)C)cc1CN[C@H]1C2CCN(CC2)[C@H]1C(c1ccccc1)c1ccccc1` please.
0 (no)

Entry `C[C@H]1CN(Cc2ccc(CC(=O)N3CCC(Nc4cccc(F)c4)CC3)cc2)CCN1` : call = ?
0 (no)

Check the results log: what was the call for `C[C@@]1(CO)[C@H](O)CC[C@@]2(C)[C@H]1CC[C@H]1C[C@@H]3C[C@@]12CC[C@]3(O)CO` ?
0 (no)

Assay result, entry `CC[C@H]1C2CC3[C@@H]4N(C)c5ccccc5[C@]45C[C@@H]([C@H]2[C@H]5O)N3[C@@H]1O` — outcome?
0 (no)

Could you kindly confirm the outcome this assay logged for `C[C@]12CC[C@H](O)C[C@@H]1CC[C@@H]1[C@@H]2CC[C@]2(C)C(=O)CC[C@@H]12` ?
0 (no)

For `CC(C)C(=O)O[C@H]1[C@@H]2[C@H](C)C(=O)O[C@@H]2C[C@@H](C)[C@@H]2C=CC(=O)[C@]21C` , what call appears in the results of this test?
1 (yes)

What was the test verdict on COC(=O)[C@@]1(C)C(=O)C=C[C@]2(C)c3c(O)cc(C(C)C)cc3[C@H](O)[C@@H](OC(C)=O)C12 (stereo partly specified) ?
0 (no)

Identify the outcome logged in this assay for the compound shown: CCCCN1[C@@H]2CC[C@H]1CC(OC(c1ccc(F)cc1)c1ccc(F)cc1)C2 (stereo partly specified)
0 (no)

GET /call?item= C[C@@H]1CCC2[C@@H](C)C(=O)OC3O[C@@]4(C)CCC1[C@]32OO4 (stereo partly specified) returns the recorded outcome of this test.
0 (no)

Please share the test call associated with `CCCCCn1cc(C(=O)Cc2ccccc2OC)c2ccccc21` .
0 (no)

For C[C@]12CC[C@H](O[C@@H]3O[C@H](CO)[C@@H](O)[C@H](O)[C@H]3O)CC1=CC[C@@H]1C2CC[C@]2(C)[C@@H](C3=CC(=O)OC3)CC[C@]12O (stereo partly specified) , which call appears in the assay record?
1 (yes)

---

- Assay Notes: Primary qHTS to identify inhibitors of SARS-CoV-2 cell entry (AID 1645846); further: nearly all actives have a fitted effect of over 45% in size
- Condition Parameters: SARS-CoV-2 pseudovirus cell entry assay, luminescence; at 57.1 µM (top of the series) unless noted
Records with an inconclusive call do not appear.
Parameter: activity change, negative = inhibition

State its activity change, negative = inhibition for this molecule: `COc1ccc(CN(C(=O)[C@@H](N)Cc2c(C)cc(C(N)=O)cc2C)[C@@H](C)c2ncc(-c3ccccc3)[nH]2)cc1C(=O)O`
-25.7%

Please report activity change, negative = inhibition for the following molecule: `NC(=O)c1cc[n+](CC2=C(C(=O)O)N3C(=O)[C@@H](NC(=O)[C@@H](c4ccccc4)S(=O)(=O)[O-])[C@H]3SC2)cc1`
2.35%

Fill in reported activity change, negative = inhibition for this entry: `CCN(CCO)CCCOc1ccc2c(Nc3cc(CC(=O)Nc4cccc(F)c4)[nH]n3)ncnc2c1`
-58.3%

Report activity change, negative = inhibition for `Nc1nc(N)c2nc(-c3cccc(O)c3)c(-c3cccc(O)c3)nc2n1`
-9.58%

# return recorded activity change, negative = inhibition for input O=C(O)C1=CC(O)C(O)[C@H](O)C1 (some centres undefined)
-8.99%

Answer with the recorded activity change, negative = inhibition for the molecule listed here: `CC(C)=CCN1CC[C@]2(C)c3cc(O)ccc3C[C@H]1[C@H]2C`
-30.2% [at 114 µM]

Give recorded activity change, negative = inhibition. `COC(=O)[C@H](c1ccccc1Cl)N1CCc2sccc2C1`
-28.2%

Specify measured activity change, negative = inhibition for `COc1ccc(-c2oc3c(CC=C(C)C)c(O)cc(O)c3c(=O)c2O)cc1` .
-9.03%

Look up and state reported activity change, negative = inhibition for `COc1cc(C(C)C)c2c(c1)S(=O)(=O)N(COc1cc(=O)n3cccc(OCCN4CCCCC4)c3n1)C2=O`
-36.9%

Supply activity change, negative = inhibition value. Item: `O=[N+]([O-])c1cn2c(n1)OC[C@@H](OCc1ccc(OC(F)(F)F)cc1)C2`
-9.12%

State its activity change, negative = inhibition for this molecule: `CC(C)c1nn(-c2c(Cl)cccc2Cl)c2nc(Cc3ccc(OCCO)cc3)[nH]c(=O)c12`
-95.3%

Kindly indicate its recorded activity change, negative = inhibition. Item: OC[C@H]1OC(O)C[C@@H](O)[C@H]1O (some centres undefined)
-3.07%

Answer with the recorded activity change, negative = inhibition for the molecule listed here: O=C(O)C1CCCN(CCC=C(c2ccccc2)c2ccccc2)C1 (centres undefined)
-1.36%

Name the recorded activity change, negative = inhibition of the molecule listed here: `Cc1ccccc1O`
-10.9% [at 114 µM]

Please indicate activity change, negative = inhibition recorded for `N[C@@H](CC(=O)N1CCn2c(nnc2C(F)(F)F)C1)Cc1cc(F)c(F)cc1F`
-27.8%

Supply measured activity change, negative = inhibition of C[S+](C)CCC(N)C(=O)O (centres undefined) in your reply.
-29.8%

Specify activity change, negative = inhibition for `CCOC(=O)N1CCN(/[N+]([O-])=N/Oc2ccc([N+](=O)[O-])cc2[N+](=O)[O-])CC1` and stop.
-5.73%

Determine from records and report activity change, negative = inhibition for `CC(C)COC(=O)OCN1C(=O)CN(CCN2CC(=O)N(COC(=O)OCC(C)C)C(=O)C2)CC1=O`
-21.8%

Give activity change, negative = inhibition for the following molecule: `CCn1nnc2c(N3CCOCC3)nc(-c3ccc(NC(=O)Nc4ccc(C(=O)N5CCN(C)CC5)cc4)cc3)nc21`
-84.5%

Provide measured activity change, negative = inhibition value, entry: `COc1cc2c(cc1-c1c(C)noc1C)ncc1[nH]c(=O)n([C@H](C)c3ccccn3)c12`
-29%

Quick one: give measured activity change, negative = inhibition for `CCCCCCCCCCCCCCCCCCCCCCO`
-17.8% [at 27.1 µM]

Determine its reported activity change, negative = inhibition: `O=C(CO)N1CCC(c2[nH]nc(-c3ccc(Cl)cc3)c2-c2ccncn2)CC1`
-14.2%

Quote activity change, negative = inhibition reported for O=C1c2c(O)cc(O)cc2OC(c2ccc(O)c(O)c2)C1O (centres undefined) please.
4.53%

Specify reported activity change, negative = inhibition for the molecule shown: `CC(=O)O[C@H]1Cc2ccccc2N(C(N)=O)c2ccccc21`
-29.9%

Please give measured activity change, negative = inhibition of the following entry: `Cn1cnc2c(F)c(Nc3ccc(Br)cc3F)c(C(=O)NOCCO)cc21`
-25.1%

Supply recorded activity change, negative = inhibition for `C[C@@H]1CN(Cc2ccc(F)cc2)[C@@H](C)CN1C(=O)c1cc2c(C(=O)C(=O)N(C)C)cn(C)c2cc1Cl` here.
-24.1%

Note activity change, negative = inhibition for the molecule shown: `O=C(O)c1nc(=O)[nH]c(=O)[nH]1`
-18.6% [at 27.1 µM]

Name the recorded activity change, negative = inhibition of the item `CCc1cc2c(cc1N1CCC(N3CCOCC3)CC1)C(C)(C)c1[nH]c3cc(C#N)ccc3c1C2=O` in your answer.
-34.9% [at 27.1 µM]

Give me measured activity change, negative = inhibition, please, for this molecule: `OCCN(CCO)CCO`
-24%

State, in one line, measured activity change, negative = inhibition of `CS(=O)(=O)c1ccc(-c2cnc(N)c(C(=O)Nc3ccccc3)n2)cc1`
-1.17%

Read off the recorded activity change, negative = inhibition for `Cc1ccc(NC(=O)C2(c3ccc4c(c3)OC(F)(F)O4)CC2)nc1-c1cccc(C(=O)O)c1`
-24.6%

Let me know recorded activity change, negative = inhibition for CC(=O)O[C@H]1CC2(C)[C@@H](C[C@@H](O)[C@H]3[C@@]4(C)CC[C@@H](O)[C@@H](C)[C@@H]4CC[C@@]32C)C1=C(CCC=C(C)C)C(=O)O (some centres undefined) , thanks.
-17.3%

Report activity change, negative = inhibition, nothing else, for this molecule: CO[C@@H]1C(N(C)C(=O)c2ccccc2)C[C@H]2O[C@]1(C)n1c3ccccc3c3c4c(c5c6ccccc6n2c5c31)C(=O)NC4=O (some centres undefined)
-47%

Give me measured activity change, negative = inhibition, please, for this molecule: CC1=C(CC(=O)O)c2cc(F)ccc2C1=Cc1ccc(S(C)=O)cc1 (centres undefined)
-11.8%

Identify measured activity change, negative = inhibition associated with `CC(=O)N1N=C(c2ccc(N)cc2)c2cc3c(cc2C[C@H]1C)OCO3`
-4.19%

Write down activity change, negative = inhibition measured for item COc1ccc(C2CC(c3ccccc3)=NN2c2ccc(S(N)(=O)=O)cc2)cc1 (centres undefined)
-0.201%

// Input: `CCOc1nc2cccc(C(=O)OCc3oc(=O)oc3C)c2n1Cc1ccc(-c2ccccc2-c2noc(O)n2)cc1` . Output its activity change, negative = inhibition only.
-28.5%

Quick one: give measured activity change, negative = inhibition for `Cc1cccc(-c2[nH]c(CNc3ccccc3F)nc2-c2ccc3ncnn3c2)n1`
-32.1%

Consider the molecule `CC(C)[C@H](O)C(=O)N[C@@H](C)C(=O)N[C@@H]1C(=O)N(C)CCc2ccccc21` and give its recorded activity change, negative = inhibition.
4.11%
